- Assay Explanation: Absorption of SAMe salts in rats: areas under the SAMe plasmatic concentration curves (AUC)
- Assay type: in vivo, Sprague Dawley male rats
- Study Conditions: introduced into proximal jejunum, 100 mg of active principle per kg, mean of 5 observations, extrapolated to infinity, 100 mg/kg
Outcome: Y for AUC, intestinal administration of at least 20000 N moles · ml^-1 × min; N for anything lower.

compound="C[S+](CC[C@H](N)C(=O)[O-])C[C@H]1O[C@@H](n2cnc3c(N)ncnc32)[C@H](O)[C@@H]1O (some centres unmarked) [Example S18, SAMe tri octadecanesulphonate]" label_value=Y
compound="C[S+](CC[C@H](N)C(=O)[O-])C[C@H]1O[C@@H](n2cnc3c(N)ncnc32)[C@H](O)[C@@H]1O (some centres unmarked) [Example S16, SAMe tri hexadecanesulphonate]" label_value=Y
compound="C[S+](CC[C@H](N)C(=O)[O-])C[C@H]1O[C@@H](n2cnc3c(N)ncnc32)[C@H](O)[C@@H]1O (some centres unmarked) [SAMe SO4 -PTS, SAMe disulphatep-toluenesulphonate, reference compound]" label_value=N
compound="C[S+](CC[C@H](N)C(=O)[O-])C[C@H]1O[C@@H](n2cnc3c(N)ncnc32)[C@H](O)[C@@H]1O (some centres unmarked) [DBS, SAMe tri dodecylbenzenesulphonate]" label_value=N
compound="C[S+](CC[C@H](N)C(=O)[O-])C[C@H]1O[C@@H](n2cnc3c(N)ncnc32)[C@H](O)[C@@H]1O (some centres unmarked) [Example S6, SAMe tri hexanesulphonate, reference compound]" label_value=N
compound="C[S+](CC[C@H](N)C(=O)[O-])C[C@H]1O[C@@H](n2cnc3c(N)ncnc32)[C@H](O)[C@@H]1O (some centres unmarked) [Example S012, SAMe tri laurylsulphate]" label_value=Y
compound="C[S+](CC[C@H](N)C(=O)[O-])C[C@H]1O[C@@H](n2cnc3c(N)ncnc32)[C@H](O)[C@@H]1O (some centres unmarked) [Example S1, SAMe tri methanesulphonate, reference compound]" label_value=N
compound="C[S+](CC[C@H](N)C(=O)[O-])C[C@H]1O[C@@H](n2cnc3c(N)ncnc32)[C@H](O)[C@@H]1O (some centres unmarked) [DSS, SAMe tri dioctylsulphosuccinate]" label_value=N
compound="C[S+](CC[C@H](N)C(=O)[O-])C[C@H]1O[C@@H](n2cnc3c(N)ncnc32)[C@H](O)[C@@H]1O (some centres unmarked) [Example S14, SAMe tri tetradecanesulphonate]" label_value=Y
compound="C[S+](CC[C@H](N)C(=O)[O-])C[C@H]1O[C@@H](n2cnc3c(N)ncnc32)[C@H](O)[C@@H]1O (some centres unmarked) [Example S12, SAMe tri dodecanesulphonate]" label_value=Y
compound="C[S+](CC[C@H](N)C(=O)[O-])C[C@H]1O[C@@H](n2cnc3c(N)ncnc32)[C@H](O)[C@@H]1O (some centres unmarked) [Example S5, SAMe tri pentanesulphonate, reference compound]" label_value=N

Where these numbers come from: patent US5128249A
